pIC50 tested on BACE1 enzyme (Homo sapiens (Human)): recorded values
Sequence (P56817 46-457): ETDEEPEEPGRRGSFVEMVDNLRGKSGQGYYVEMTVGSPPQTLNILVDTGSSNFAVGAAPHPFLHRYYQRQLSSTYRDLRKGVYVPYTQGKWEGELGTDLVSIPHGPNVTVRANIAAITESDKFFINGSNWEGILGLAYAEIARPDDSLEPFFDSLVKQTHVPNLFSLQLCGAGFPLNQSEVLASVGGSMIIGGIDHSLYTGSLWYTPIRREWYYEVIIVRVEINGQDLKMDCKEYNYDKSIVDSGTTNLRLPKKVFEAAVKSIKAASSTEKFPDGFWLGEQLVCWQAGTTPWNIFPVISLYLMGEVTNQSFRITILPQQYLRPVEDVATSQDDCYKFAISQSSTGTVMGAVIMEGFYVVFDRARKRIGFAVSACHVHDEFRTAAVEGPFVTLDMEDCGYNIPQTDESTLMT
Answers are plain numbers, as −log10 of the molar value.

Here are 2 compounds. What values of pIC50 were reported for them?
1. C[C@H]1SC(N)=N[C@@]2(c3ccc(F)cc3F)CO[C@@H](c3ncco3)C[C@@H]12
2. Cc1cc([C@H]2C[C@H]3CSC(N)=N[C@@]3(c3ccc(F)cc3F)CO2)on1

1: 6.70; 2: 7.23

Give pIC50 for each listed item.
1. NC1=N[C@@]2(c3ccc(F)cc3F)CO[C@@H](c3ncccn3)C[C@H]2CS1
2. Cc1nccc([C@H]2C[C@H]3CSC(N)=N[C@@]3(c3ccc(F)cc3F)CO2)n1
3. Cc1coc([C@H]2C[C@H]3CSC(N)=N[C@@]3(c3ccc(F)cc3F)CO2)n1
4. Cn1nccc1[C@H]1C[C@H]2CSC(N)=N[C@@]2(c2ccc(F)cc2F)CO1
5. Cn1ccc([C@H]2C[C@H]3CSC(N)=N[C@@]3(c3ccc(F)cc3F)CO2)n1

[6.01, 6.23, 7.08, 5.11, 6.74]

Supply measured pIC50 of `NC1=N[C@@]2(c3ccc(F)cc3F)CO[C@@H](c3nnco3)C[C@H]2CS1` in your reply.
5.66
